- experimental.system: human recombinant mGluR5 (Homo sapiens, UniProt P41594)
- Construct: expressed in transfected cells; host or cells: HEK 293 cell line cultured with tetracycline, hygromycin and geneticin; tetracycline removed 3-7 days before the assay
- Sequence (P41594 21-1212): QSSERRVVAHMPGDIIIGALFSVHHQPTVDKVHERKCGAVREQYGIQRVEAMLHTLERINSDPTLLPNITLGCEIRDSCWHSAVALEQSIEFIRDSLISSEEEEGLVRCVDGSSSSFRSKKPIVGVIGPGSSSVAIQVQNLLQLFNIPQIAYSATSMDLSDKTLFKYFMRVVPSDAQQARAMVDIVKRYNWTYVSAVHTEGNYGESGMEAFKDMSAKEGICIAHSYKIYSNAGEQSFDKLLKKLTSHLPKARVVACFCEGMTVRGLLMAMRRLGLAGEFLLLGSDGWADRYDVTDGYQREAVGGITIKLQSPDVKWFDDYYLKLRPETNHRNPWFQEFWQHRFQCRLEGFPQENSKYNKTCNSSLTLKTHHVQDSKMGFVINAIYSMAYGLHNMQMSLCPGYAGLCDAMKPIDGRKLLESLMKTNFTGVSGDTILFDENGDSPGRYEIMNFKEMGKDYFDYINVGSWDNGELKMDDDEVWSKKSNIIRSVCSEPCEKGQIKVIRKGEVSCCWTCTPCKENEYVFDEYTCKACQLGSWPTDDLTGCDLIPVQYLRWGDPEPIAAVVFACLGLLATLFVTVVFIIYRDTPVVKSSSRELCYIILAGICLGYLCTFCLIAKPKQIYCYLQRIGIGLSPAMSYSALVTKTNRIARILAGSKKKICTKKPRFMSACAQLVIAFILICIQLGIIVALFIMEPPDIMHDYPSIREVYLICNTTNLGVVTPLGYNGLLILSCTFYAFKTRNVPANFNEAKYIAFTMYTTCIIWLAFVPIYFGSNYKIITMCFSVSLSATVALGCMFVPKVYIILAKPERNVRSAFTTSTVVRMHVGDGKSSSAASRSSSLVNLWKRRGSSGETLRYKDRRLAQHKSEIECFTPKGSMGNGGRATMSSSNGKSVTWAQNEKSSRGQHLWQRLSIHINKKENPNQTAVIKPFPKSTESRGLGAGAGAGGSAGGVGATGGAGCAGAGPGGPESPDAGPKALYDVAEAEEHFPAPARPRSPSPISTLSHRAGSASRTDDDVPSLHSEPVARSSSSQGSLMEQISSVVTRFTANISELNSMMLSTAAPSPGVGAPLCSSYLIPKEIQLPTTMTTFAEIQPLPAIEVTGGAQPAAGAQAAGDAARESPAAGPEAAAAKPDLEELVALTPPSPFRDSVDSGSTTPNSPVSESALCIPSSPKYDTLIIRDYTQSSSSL
- assay.summary: positive modulation of mGluR5, calcium based FLIPR assay in HEK 293 cells
- conditions.used: HEK 293 cell line expressing human recombinant mGluR5; EC50 of the modulation of the glutamate response (glutamate approx. 5% basal stimulation); peak height of Ca release fluorescence signal
recorded.metric: EC50 (nM)

[[record]]
compound_smiles = "COCCN(C)c1cc(N2CCN(C(=O)Cn3nc(-c4ccc(F)cc4)nc3-c3ccc(F)cc3)CC2)ncn1"
recorded_metric = "EC50"
readout_number = 238

[[record]]
compound_smiles = "COc1ccc(-c2nc(-c3ccccc3)n(CC(=O)N3CCN(c4cccc(OC)n4)CC3)n2)cc1"
recorded_metric = "EC50"
readout_number = 282

[[record]]
compound_smiles = "Cc1ccnc(N2CCN(C(=O)Cn3nc(-c4ccc(F)c(C)c4)nc3-c3ccccc3)CC2)c1"
recorded_metric = "EC50"
readout_number = 57

[[record]]
compound_smiles = "COc1ccc(-c2nc(-c3ccc(F)cc3)n(CC(=O)N3CCN(c4cc(C)ccn4)CC3)n2)cc1"
recorded_metric = "EC50"
readout_number = 39

[[record]]
compound_smiles = "COCCCN(C)c1cc(N2CCN(C(=O)Cn3nc(-c4ccc(F)cc4)nc3-c3ccc(F)cc3)CC2)ncn1"
recorded_metric = "EC50"
readout_number = 293

[[record]]
compound_smiles = "COc1cccc(-c2nc(-c3ccc(F)cc3)nn2CC(=O)N2CCN(c3cc(C)ccn3)CC2)c1"
recorded_metric = "EC50"
readout_number = 868


(A) CN(CCO)c1cc(N2CCN(C(=O)Cn3nc(-c4ccc(F)cc4)nc3-c3ccc(F)cc3)CC2)ncn1
(B) COc1cccc(N2CCN(C(=O)Cn3nc(-c4ccc(F)cc4)nc3-c3ccc(F)cc3)CC2)n1
(C) Cc1ccc(-c2nc(-c3ccccc3)n(CC(=O)N3CCN(c4ncccn4)CC3)n2)cc1
(D) O=C(Cn1nc(-c2ccc(F)cc2)nc1-c1ccc(F)cc1)N1CCN(c2ccccc2O)CC1
Exercise: Please produce an ascending ranking of these compounds based on EC50. Would you mind listing the labels in the order asked for?
Solution: C, B, A, D

(A) COc1ccnc(N2CCN(C(=O)Cn3nc(-c4ccc(F)c(C)c4)nc3C3CCCCC3)CC2)c1
(B) COc1cccc(-c2nc(C3CCCCC3)n(CC(=O)N3CCN(c4cc(C)ccn4)CC3)n2)c1
Exercise: Of A and B , whose reported EC50 is numerically smaller? State your choice using its label.
Solution: A
(A: 246 nM, B: 898 nM)

---

- experimental.system: human recombinant mGluR5 (Homo sapiens)
- Construct: tetracycline removed 3-7 days before the assay
- assay.summary: positive modulation of mGluR5, calcium based FLIPR assay in HEK 293 cells
- conditions.used: HEK 293 cell line expressing human recombinant mGluR5; EC50 of the modulation of the glutamate response (glutamate approx. 5% basal stimulation); peak height of Ca release fluorescence signal
recorded.metric: EC50 (nM)

[[record]]
compound = "COc1ccnc(N2CCN(C(=O)Cn3nc(-c4ccc(F)c(C)c4)nc3CC(C)C)CC2)c1"
experimental_system = "human recombinant mGluR5 (Homo sapiens)"
reading_unit = "nM"
readout_number = 500


(I) O=C(Cn1nc(-c2ccc(F)cc2)nc1-c1ccc(F)cc1)N1CCN(c2nccc(C(F)(F)F)n2)CC1 [Example 07.03.03.]
(II) Cc1ccnc(N2CCN(C(=O)Cn3nc(-c4ccc(F)c(C)c4)nc3C3CCCC(C)C3)CC2)c1 (stereo not shown)
Exercise: Record comparison, field EC50: mark the lower of I and II . Indicate which entry you chose by stating its label.
Solution: I
(I: 595 nM, II: 1340 nM)

---

- experimental.system: human recombinant mGluR5 (Homo sapiens, UniProt P41594)
- Construct: expressed in transfected cells; host or cells: HEK 293 cell line cultured with tetracycline, hygromycin and geneticin; tetracycline removed 3-7 days before the assay
- assay.summary: positive modulation of mGluR5, calcium based FLIPR assay in HEK 293 cells
- conditions.used: HEK 293 cell line expressing human recombinant mGluR5; EC50 of the modulation of the glutamate response (glutamate approx. 5% basal stimulation); peak height of Ca release fluorescence signal
pEC50: −log10 of the molar value.
recorded.metric: pEC50

[[record]]
compound = "COc1ccc(-c2nc(C3CCCCC3)n(CC(=O)N3CCN(c4ccccn4)CC3)n2)cc1"
experimental_system = "human recombinant mGluR5 (Homo sapiens, UniProt P41594)"
readout_number = 6.37

[[record]]
compound = "Cc1cc(-c2nc(C3CCC(C)CC3)n(CC(=O)N3CCN(c4ncccn4)CC3)n2)ccc1F (stereo not drawn)"
experimental_system = "human recombinant mGluR5 (Homo sapiens, UniProt P41594)"
readout_number = 6.31

[[record]]
compound = "CCc1nc(-c2ccc(F)c(C)c2)nn1CC(=O)N1CCN(c2ncccn2)CC1"
experimental_system = "human recombinant mGluR5 (Homo sapiens, UniProt P41594)"
readout_number = 6.18


---

- experimental.system: human recombinant mGluR5 (Homo sapiens)
- Construct: tetracycline removed 3-7 days before the assay
- assay.summary: positive modulation of mGluR5, calcium based FLIPR assay in HEK 293 cells
- conditions.used: HEK 293 cell line expressing human recombinant mGluR5; EC50 of the modulation of the glutamate response (glutamate approx. 5% basal stimulation); peak height of Ca release fluorescence signal
recorded.metric: EC50 (µM)

(A) COc1cc(N2CCN(C(=O)Cn3nc(-c4cccc(C(C)C)c4)nc3-c3ccccc3)CC2)ncn1 [Example 07.10.34.]
(B) O=C(Cn1nc(-c2ccc(F)cc2)nc1C1CCCCC1)N1CCN(c2ncccn2)CC1 [Example 07.04.031.]
Exercise: Form field 'greater EC50' accepts A or B ; which applies? Response format: the label of the selected entry.
Solution: B

(1) COc1cc(N2CCN(C(=O)Cn3nc(-c4ccc(F)c(C)c4)nc3C3CCC(C)CC3)CC2)ncn1 (stereo not drawn) [Example 07.04.132.]
(2) O=C(Cn1nc(-c2ccc(F)cc2)nc1-c1ccc(F)cc1)N1CCN(c2cc(OC[C@H]3CCCO3)ncn2)CC1 [Example 07.09.03.]
Exercise: Choose between 1 and 2 : whose measured EC50 value is numerically larger? Output the label that corresponds to your choice.
Solution: 1
